Where these numbers come from: PubChem BioAssay

Assay summary: CREB reporter modulators under forskolin, primary screen, cell-based, PC12, CRE-LacZ reporter, forskolin-stimulated (AID 1146);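 note: PC12 cells with 6xCRE LacZ reporter stimulated by forskolin 10 µM; beta-galactosidase reporter signal reflecting CREB driven transcription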
Conditions used: luminescence, 4.5 h, higher = more signal, called active from +8 up or from −8 down
Measured parameter: z-score
Quick one: just the number, no unit, thanks!

(Q) Which z-score value belongs to `COC(=O)[C@@]1(Cc2ccccc2CN=[N+]=[N-])COC(c2ccc(OCCCO)cc2)=N1` ?
(A) -0.244

====

Target of assay: Torsin-1A-interacting protein 1 (Homo sapiens) (UniProt Q5JTV8)
Sequence (Q5JTV8 whole entry, looked up): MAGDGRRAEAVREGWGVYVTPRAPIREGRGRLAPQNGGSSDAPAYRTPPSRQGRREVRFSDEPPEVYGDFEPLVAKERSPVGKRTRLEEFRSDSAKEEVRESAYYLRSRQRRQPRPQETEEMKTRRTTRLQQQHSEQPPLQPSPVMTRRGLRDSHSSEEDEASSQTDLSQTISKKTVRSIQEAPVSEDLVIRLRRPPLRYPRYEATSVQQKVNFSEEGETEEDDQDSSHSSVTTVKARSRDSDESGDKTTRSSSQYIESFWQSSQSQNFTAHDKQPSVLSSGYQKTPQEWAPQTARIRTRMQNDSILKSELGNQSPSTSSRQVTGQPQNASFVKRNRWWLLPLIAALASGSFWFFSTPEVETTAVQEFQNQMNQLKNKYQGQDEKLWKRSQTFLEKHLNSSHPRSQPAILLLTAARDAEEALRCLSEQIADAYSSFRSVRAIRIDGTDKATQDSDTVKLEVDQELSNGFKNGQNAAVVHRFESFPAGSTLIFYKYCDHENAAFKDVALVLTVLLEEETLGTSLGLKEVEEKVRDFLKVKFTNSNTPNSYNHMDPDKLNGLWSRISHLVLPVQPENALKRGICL
Assay summary: LAP1 binders from COS7 cell lysate, primary screen, small-molecule microarray, 635/667 nm fluorescence (AID 1116)
Conditions used: COS7-hLAP1 lysate binding, 635 nm fluorescence, higher = more signal
Measured parameter: composite z-score
Quick one: just the number, no unit, thanks!

Compound: N#Cc1ccc(C(O)C2C=CC3C(=O)N(c4ccccc4)C(=O)C3N2Nc2ccc([N+](=O)[O-])cc2)cc1 (centres undefined)
Target of assay: Torsin-1A-interacting protein 1 (Homo sapiens) (UniProt Q5JTV8)
Measured parameter: composite z-score
Measurement: 1.69
--
Compound: CCCCCCc1nc(-c2ccc(OC)nc2)cc2c1[Si](C(C)C)(C(C)C)OC2
Target of assay: Torsin-1A-interacting protein 1 (Homo sapiens) (UniProt Q5JTV8)
Measured parameter: composite z-score
Measurement: -0.346
--
Compound: Cc1ccc(S[C@]2(C(=O)NCCN3CCOCC3)CC(=O)N(C3CCCCC3)[C@@H]2c2ccc(CO)cc2I)cc1
Target of assay: Torsin-1A-interacting protein 1 (Homo sapiens) (UniProt Q5JTV8)
Measured parameter: composite z-score
Measurement: 1.37

(Q) Which composite z-score value belongs to CC(C)N1CC=CC23O[C@@H]4C=CCCOC(=O)C4[C@H]2C(=O)N(CCCCCO)[C@@H]3C1=O (some centres undefined) ?
(A) 1.92

(Q) Which composite z-score value belongs to `CC(C)CNC(=O)[C@@]1(C)c2ccccc2C(=O)N(Cc2cc(F)cc(C(F)(F)F)c2)[C@H]1c1ccc(CO)cc1` ?
(A) 1.98

(Q) Which composite z-score value belongs to `COC(=O)[C@@]1(Cc2ccc(F)cc2)[C@H]2c3cc(C(=O)N(C)C)n(CCN4CCOCC4)c3C[C@H]2CN1C(=O)c1ccccc1` ?
(A) 0.868

(Q) Which composite z-score value belongs to O=C1NC(=O)C2C1C=CC(C(O)c1ccc(F)cc1)N2Nc1ccccn1 (centres undefined) ?
(A) 0.513

(Q) Which composite z-score value belongs to `COCCOC(=O)N1C(=O)[C@@]2(c3cc(C#CC4(O)CCCCCC4)ccc31)[C@H](C(=O)NC[C@H](O)c1ccccc1)[C@H]1C(=O)O[C@H](c3ccccc3)[C@H](c3ccccc3)N1[C@@H]2c1ccc(O)cc1` ?
(A) 1.14

(Q) Which composite z-score value belongs to `CCC[C@@H]1C=C(C(=O)OCC)[C@H](c2ccccc2)N1S(=O)(=O)c1ccc(C)cc1` ?
(A) 1.69

(Q) Which composite z-score value belongs to `COc1ccc([Si](C)(C)[C@H]2[C@H](CCO)O[C@@]3(C(=O)N(Cc4ccccc4)c4ccc(N(C=O)c5ccccc5)cc43)[C@@H]2C)cc1` ?
(A) 0.431

(Q) Which composite z-score value belongs to `COCCOC(=O)N1C(=O)[C@@]2(c3cc(C#Cc4ccc(OC)cc4)ccc31)[C@H](C(=O)Nc1nc3ccccc3s1)[C@H]1C(=O)O[C@H](c3ccccc3)[C@H](c3ccccc3)N1[C@@H]2c1ccccc1OCCO` ?
(A) 0.188

(Q) Which composite z-score value belongs to `COc1ccc(CCNC(=O)[C@@]2(Sc3ccc(C)cc3)CC(=O)N(Cc3cc(C(F)(F)F)cc(C(F)(F)F)c3)[C@@H]2c2ccc(CO)cc2)cc1` ?
(A) -0.282

(Q) Which composite z-score value belongs to `COC(=O)Cn1c(C(=O)N(C)C)cc2c1C[C@H]1CN(C(=O)c3ccccc3)[C@@](Cc3ccc(OC)cc3)(C(=O)OC)[C@@H]21` ?
(A) 1.8

(Q) Which composite z-score value belongs to `CC(C)(C)OC(=O)CC[C@]1(C(N)=O)N=C(c2ccc(OCCCO)cc2)O[C@H]1c1ccccc1CN=[N+]=[N-]` ?
(A) 2.26

====

Target of assay: E3 ubiquitin-protein ligase XIAP (Homo sapiens) (UniProt P98170)
Sequence (P98170 whole entry, looked up): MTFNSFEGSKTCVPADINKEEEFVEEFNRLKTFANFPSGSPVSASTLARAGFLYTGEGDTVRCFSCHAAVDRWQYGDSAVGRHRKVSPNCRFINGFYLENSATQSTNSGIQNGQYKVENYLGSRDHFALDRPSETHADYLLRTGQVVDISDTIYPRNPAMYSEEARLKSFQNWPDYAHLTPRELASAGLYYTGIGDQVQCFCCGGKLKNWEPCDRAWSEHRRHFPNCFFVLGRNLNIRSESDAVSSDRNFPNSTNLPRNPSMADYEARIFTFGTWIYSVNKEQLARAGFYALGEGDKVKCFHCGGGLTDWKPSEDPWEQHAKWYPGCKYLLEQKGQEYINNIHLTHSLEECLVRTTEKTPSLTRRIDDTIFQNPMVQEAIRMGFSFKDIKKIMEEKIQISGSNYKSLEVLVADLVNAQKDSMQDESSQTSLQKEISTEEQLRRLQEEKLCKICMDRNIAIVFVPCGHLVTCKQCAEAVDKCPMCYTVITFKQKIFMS
Assay summary: XIAP binders, primary screen, biophysical, small-molecule microarray, fluorescence 635 nm (AID 1181);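 note: score merges 667 nm emission and signal to noise over triplicate slides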
Conditions used: small-molecule microarray binding, higher = more signal
Would you mind labelling by composite z-score? At or over -0.1 is yes, under is no.

Some solved cases for reference:
Compound: [N-]=[N+]=NCc1ccccc1[C@H]1OC(c2ccc(OCCCO)cc2)=N[C@@]1(Cc1ccccc1)C(=O)N1CCOCC1
Class name: yes
--
Compound: COc1ccc([Si](C)(C)[C@H]2[C@H](CCO)O[C@@]3(C(=O)N(Cc4ccccc4)c4ccc(N(C=O)c5ccccc5)cc43)[C@@H]2C)cc1
Class name: yes
--
Compound: COc1cccc(C[C@H]2C[C@@H](CO[Si](C(C)C)(C(C)C)C(C)C)N3C(=O)[C@@]4(C(C)=O)O[C@@]23[C@@H]2C(=O)N(C)C(=O)[C@@H]24)c1
Class name: yes
--
Compound: CC(C)C[C@@H]1NC(=O)[C@@H]2C[C@H](C(=O)NCCCC[N+](C)(C)C)[C@H](c3ccc(O)cc3)N2C1=O
Class name: no
--
Compound: CC(C)C[C@H]1NC(=O)[C@H](Cc2ccccc2)NC(=O)[C@@]23C(=O)N[C@@H](Cc4ccccc4)C2[C@H](C)[C@@]2(C)O[C@H]2C3/C=C/C/C=C\CNC1=O (stereo partly drawn)
Class name: no
--
Compound: COCCOC(=O)N1C(=O)[C@@]2(c3cc(C#Cc4ccc(OC)cc4)ccc31)[C@H](C(=O)N1CCCCCCC1)[C@H]1C(=O)O[C@H](c3ccccc3)[C@H](c3ccccc3)N1[C@@H]2c1ccccc1OCCO
Class name: yes

(Q) Does the reported composite z-score for `CN(C)C(=O)[C@]1(Cc2ccccc2)N=C(c2ccc(OCCCO)cc2)O[C@@H]1c1ccccc1` fall at or above the -0.1 mark?
(A) yes

(Q) Does the reported composite z-score for CC(C)(C)N1CC=CC23O[C@@H]4/C=C\CCCOC(=O)C4[C@H]2C(=O)N(CCCCCCO)[C@@H]3C1=O (stereo partly drawn) fall at or above the -0.1 mark?
(A) yes

(Q) Does the reported composite z-score for `CCCC=C(CCC)[C@@H](NS(=O)(=O)c1ccc(Cl)cc1)c1ccccc1` fall at or above the -0.1 mark?
(A) yes

(Q) Does the reported composite z-score for `COCCOC(=O)N1C(=O)[C@@]2(c3cc(C#CCC(C(=O)OC)C(=O)OC)ccc31)[C@H](C(=O)N1CCCCCCC1)[C@H]1C(=O)O[C@H](c3ccccc3)[C@H](c3ccccc3)N1[C@@H]2c1ccccc1OCCO` fall at or above the -0.1 mark?
(A) yes

(Q) Does the reported composite z-score for `COCCOC(=O)N1C(=O)[C@@]2(c3cc(C#CCNC(N)=O)ccc31)[C@H](C(=O)NC[C@H](O)c1ccccc1)[C@H]1C(=O)O[C@H](c3ccccc3)[C@H](c3ccccc3)N1[C@@H]2c1ccc(OCCO)cc1` fall at or above the -0.1 mark?
(A) yes

(Q) Does the reported composite z-score for `COC(=O)[C@H](Cc1ccc(O)cc1)N1CC2=CCCC=C[C@@H]2[C@H]1[C@H](O)Cc1ccccc1` fall at or above the -0.1 mark?
(A) no

(Q) Does the reported composite z-score for CN1C(=O)C2C(C1=O)C1C=C(c3ccc(CO)cc3)C2C(c2cccs2)N1C (stereo not drawn) fall at or above the -0.1 mark?
(A) no

(Q) Does the reported composite z-score for `CC(C)C(=C=CC[C@@H](O)c1ccccc1OCCO)C[C@@H](O)c1cc(Cl)cc(Cl)c1O` fall at or above the -0.1 mark?
(A) no

(Q) Does the reported composite z-score for `O=C1N(CCS(=O)(=O)c2ccccc2)c2ccccc2[C@@H]2OC(c3ccc(OCCCO)cc3)=N[C@]12CCS(=O)(=O)c1ccccc1` fall at or above the -0.1 mark?
(A) no

(Q) Does the reported composite z-score for `COCCn1c(C(=O)N2CCCC2)cc2c1C[C@H]1CN(C(=O)c3ccccc3)[C@@](Cc3ccccc3)(C(=O)OC)[C@@H]21` fall at or above the -0.1 mark?
(A) yes

====

Reported z-score by item:
Assay summary: P. aeruginosa biofilm formation inhibitors, primary screen, strain PAO1, LB-PBS medium, absorbance 600 nm (AID 1176); note: test concentration not given here
Conditions used: P. aeruginosa PAO1 growth/biofilm, A600, 12 h; higher = more signal
Quick one: just the number, no unit, thanks!

Some compounds with known z-score results, for comparison:
Compound: COC(=O)c1c(CC[C@@H](CO)NC(=O)N[C@@H](Cc2ccccc2)Cn2cc(-c3cncn3C)nn2)oc(C(C)=O)c1C(=O)OC
Measurement: -1.25
//
Compound: O=C1O[C@@H](c2ccccc2)[C@@H](c2ccccc2)N2[C@@H](c3ccc(O)cc3)[C@]3(C(=O)Nc4ccc(C#CC5=CCCCC5)cc43)[C@@H](C(=O)N3CCCCCCC3)[C@H]12
Measurement: 1.22
//
Compound: COC(=O)Cn1c(C(=O)N(C)C)cc2c1C[C@H]1CN(C(=O)c3ccccc3)[C@@](Cc3ccc(OC)cc3)(C(=O)OC)[C@@H]21
Measurement: -0.0424
//
Compound: CN1C(=O)C2C=CC(C(O)c3ccc(-c4ccccc4)s3)N(Nc3ccccc3)C2C1=O (stereo not drawn)
Measurement: 1.6

(Q) Which z-score value belongs to `C=CCNC(=O)[C@H]1[C@@H]2C(=O)O[C@@H](c3ccccc3)[C@@H](c3ccccc3)N2[C@@H](c2ccc(O)cc2)[C@]12C(=O)Nc1ccc(C#CC3=CCCCC3)cc12` ?
(A) 1.41
